Tested on: Echinochloa oryzoides (Ard.) Fritsch.
Test: Preemergence weed control under flooded paddy conditions, ECHORC (Watergrass (Calif.)); also: meaning of each grade not given here
Type: in vivo
Settings: Rate 0.5000 kg/ha; preemergence, flooded paddy; rated 3-4 weeks after treatment

{"columns": ["compound", "target.under.test", "herbicidal effect rating, ECHORC"],
 "data": [
  ["Cc1ccc(OC(C)C(=O)c2ccc(C)c(C)c2)c(-c2nsc3ccc(-n4c(=O)cc(C(F)(F)F)n(C)c4=O)cc23)c1 (stereo not shown)", "Echinochloa oryzoides (Ard.) Fritsch.", 9.0],
  ["Cn1c(C(F)(F)F)cc(=O)n(-c2ccc3snc(-c4ccccc4OCC(N)=O)c3c2)c1=O", "Echinochloa oryzoides (Ard.) Fritsch.", 6.0],
  ["C=CS(=O)(=O)NC(=O)COc1ccccc1-c1nsc2ccc(-n3c(=O)cc(C(F)(F)F)n(C)c3=O)cc12", "Echinochloa oryzoides (Ard.) Fritsch.", 9.0],
  ["COCCOC(=O)C(C)(C)Oc1ccc(C)cc1-c1nsc2ccc(-n3c(=O)cc(C(F)(F)F)n(C)c3=O)cc12", "Echinochloa oryzoides (Ard.) Fritsch.", 9.0],
  ["Cc1ccc(OCC(=O)c2ccccc2)c(-c2nsc3ccc(-n4c(=O)cc(C(F)(F)F)n(C)c4=O)cc23)c1", "Echinochloa oryzoides (Ard.) Fritsch.", 9.0],
  ["Cc1ccc(C(=O)C(C)Oc2ccccc2-c2nsc3ccc(-n4c(=O)cc(C(F)(F)F)n(C)c4=O)cc23)cc1C (stereo not shown)", "Echinochloa oryzoides (Ard.) Fritsch.", 9.0],
  ["CCOC(=O)c1ccc(NC(=O)C(C)Oc2ccc(C)cc2-c2nsc3ccc(-n4c(=O)cc(C(F)(F)F)n(C)c4=O)cc23)cc1 (stereo not shown)", "Echinochloa oryzoides (Ard.) Fritsch.", 6.0]
]}
